system: 282377-053-R-J1-PDC complex spheroid viability; assay: Anticancer human tumor 282377-053-R-J1-PDC patient-derived colon adenocarcinoma cell line growth inhibition [RAS]; conditions: second compound 0.0949 µM; first compound 0.1 µM; hits give low values
reported.property: viability, T/C

These recorded examples may help you get a feel for the data.
compound	reported.property	reported.measurement
CC(C)n1nc(-c2ccc3oc(N)nc3c2)c2c(N)ncnc21 + CCn1c(-c2cccnc2C(C)OC)c2c3cc(ccc31)N1CCOC(CC(NC(=O)C(C(C)C)N(C)C(=O)C3(F)CCN(C(=O)C#CC(C)(C)N(C)C)CC3)C(=O)N3CCCC(N3)C(=O)OCC(C)(C)C2)C1	viability, T/C	48.5%
C=CC(=O)N1CCN(c2nc(OCC3CCCN3C)nc3c(F)c(-c4nc(N)cc(C)c4C(F)(F)F)c(Cl)cc23)C(C)C1 (stereo not given) + CCn1c(-c2cc(N3CCN(C)CC3)cnc2C(C)OC)c2c3cc(ccc31)-c1csc(n1)CC(NC(=O)C1CC1C)C(=O)N1CCCC(N1)C(=O)OCC(C)(C)C2	viability, T/C	119%
O=C(c1ccc(F)c(F)c1Nc1ccc(I)cc1F)N1CC(O)([C@@H]2CCCCN2)C1 + CCn1c(-c2cccnc2C(C)OC)c2c3cc(ccc31)N1CCOC(CC(NC(=O)C(C(C)C)N(C)C(=O)C3(F)CCN(C(=O)C#CC(C)(C)N(C)C)CC3)C(=O)N3CCCC(N3)C(=O)OCC(C)(C)C2)C1	viability, T/C	33.7%
CC(Nc1ccc2c(c1)OCCn1cc(N3C(=O)OCC3C(F)F)nc1-2)C(N)=O (stereo not given) + CCn1c(-c2cccnc2C(C)OC)c2c3cc(ccc31)N1CCOC(CC(NC(=O)C(C(C)C)N(C)C(=O)C3(F)CCN(C(=O)C#CC(C)(C)N(C)C)CC3)C(=O)N3CCCC(N3)C(=O)OCC(C)(C)C2)C1	viability, T/C	113%
CC1(O)CCCC1n1c(=O)c(C(F)F)cc2cnc(NC3CCN(S(C)(=O)=O)CC3)nc21 (stereo not given) + CCn1c(-c2cc(N3CCN(C)CC3)cnc2C(C)OC)c2c3cc(ccc31)-c1csc(n1)CC(NC(=O)C1CC1C)C(=O)N1CCCC(N1)C(=O)OCC(C)(C)C2	viability, T/C	141%

Bench note: what viability, T/C did C[C@@H](NC(=O)c1ncnc(N)c1Cl)c1ncc(C(=O)Nc2cc(C(F)(F)F)c(Cl)cn2)s1 + CCn1c(-c2cc(N3CCN(C)CC3)cnc2C(C)OC)c2c3cc(ccc31)-c1csc(n1)CC(NC(=O)C1CC1C)C(=O)N1CCCC(N1)C(=O)OCC(C)(C)C2 show?
105%

Bench note: what viability, T/C did C[C@@H](NC(=O)c1ncnc(N)c1Cl)c1ncc(C(=O)Nc2cc(C(F)(F)F)c(Cl)cn2)s1 + CCn1c(-c2cccnc2C(C)OC)c2c3cc(ccc31)N1CCOC(CC(NC(=O)C(C(C)C)N(C)C(=O)C3(F)CCN(C(=O)C#CC(C)(C)N(C)C)CC3)C(=O)N3CCCC(N3)C(=O)OCC(C)(C)C2)C1 show?
93.6%

* * *

system: 282377-053-R-J1-PDC complex spheroid viability; experiment: Anticancer human tumor 282377-053-R-J1-PDC cell line growth inhibition [RAS]; details: second compound 0.3 µM; first compound 0.1 µM; hits give low values;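 note: spheroids exposed to agents for seven days before readout; luminescence viability as percent of DMSO vehicle control wells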
Property: viability, T/C; scope: individual compounds
Please state the figure in %; there is no need to write the unit.

These recorded examples may help you get a feel for the data.
compound	reported.property	unit.tag	reported.measurement
CC(C)NCC(C(=O)N1CCN(c2ncnc3c2C(C)CC3O)CC1)c1ccc(Cl)cc1 (stereo not given) + CCn1c(-c2cccnc2C(C)OC)c2c3cc(ccc31)N1CCOC(CC(NC(=O)C(C(C)C)N(C)C(=O)C3(F)CCN(C(=O)C#CC(C)(C)N(C)C)CC3)C(=O)N3CCCC(N3)C(=O)OCC(C)(C)C2)C1	viability, T/C	%	112
CCN1CCN(Cc2ccc(Nc3ncc(F)c(-c4cc(F)c5nc(C)n(C(C)C)c5c4)n3)nc2)CC1 + CCn1c(-c2cc(N3CCN(C)CC3)cnc2C(C)OC)c2c3cc(ccc31)-c1csc(n1)CC(NC(=O)C1CC1C)C(=O)N1CCCC(N1)C(=O)OCC(C)(C)C2	viability, T/C	%	119
CC(C)NCC(C(=O)N1CCN(c2ncnc3c2C(C)CC3O)CC1)c1ccc(Cl)cc1 (stereo not given) + CCn1c(-c2cc(N3CCN(C)CC3)cnc2C(C)OC)c2c3cc(ccc31)-c1csc(n1)CC(NC(=O)C1CC1C)C(=O)N1CCCC(N1)C(=O)OCC(C)(C)C2	viability, T/C	%	86.6
C=CC(=O)N1CCN(c2nc(OCC3CCCN3C)nc3c(F)c(-c4nc(N)cc(C)c4C(F)(F)F)c(Cl)cc23)C(C)C1 (stereo not given) + CCn1c(-c2cccnc2C(C)OC)c2c3cc(ccc31)N1CCOC(CC(NC(=O)C(C(C)C)N(C)C(=O)C3(F)CCN(C(=O)C#CC(C)(C)N(C)C)CC3)C(=O)N3CCCC(N3)C(=O)OCC(C)(C)C2)C1	viability, T/C	%	93.3
CC(C)n1nc(-c2ccc3oc(N)nc3c2)c2c(N)ncnc21 + CCn1c(-c2cc(N3CCN(C)CC3)cnc2C(C)OC)c2c3cc(ccc31)-c1csc(n1)CC(NC(=O)C1CC1C)C(=O)N1CCCC(N1)C(=O)OCC(C)(C)C2	viability, T/C	%	48.9
CC1(O)CCCC1n1c(=O)c(C(F)F)cc2cnc(NC3CCN(S(C)(=O)=O)CC3)nc21 (stereo not given) + CCn1c(-c2cc(N3CCN(C)CC3)cnc2C(C)OC)c2c3cc(ccc31)-c1csc(n1)CC(NC(=O)C1CC1C)C(=O)N1CCCC(N1)C(=O)OCC(C)(C)C2	viability, T/C	%	134

What value of viability, T/C on 282377-053-R-J1-PDC complex spheroid viability does CCC(CC)c1cc(NC2CCC(N)C2)n2nccc2n1 (stereo not given) + CCn1c(-c2cc(N3CCN(C)CC3)cnc2C(C)OC)c2c3cc(ccc31)-c1csc(n1)CC(NC(=O)C1CC1C)C(=O)N1CCCC(N1)C(=O)OCC(C)(C)C2 have?
78

What value of viability, T/C on 282377-053-R-J1-PDC complex spheroid viability does NC1c2ccccc2OC12CCN(c1cnc3c(N4CCCc5ncccc54)n[nH]c3n1)CC2 (stereo not given) + CCn1c(-c2cccnc2C(C)OC)c2c3cc(ccc31)N1CCOC(CC(NC(=O)C(C(C)C)N(C)C(=O)C3(F)CCN(C(=O)C#CC(C)(C)N(C)C)CC3)C(=O)N3CCCC(N3)C(=O)OCC(C)(C)C2)C1 have?
88.4

What value of viability, T/C on 282377-053-R-J1-PDC complex spheroid viability does C=CC(=O)Nc1cc(Nc2nccc(-c3cn(C)c4ccccc34)n2)c(OC)cc1N(C)CCN(C)C + CCn1c(-c2cc(N3CCN(C)CC3)cnc2C(C)OC)c2c3cc(ccc31)-c1csc(n1)CC(NC(=O)C1CC1C)C(=O)N1CCCC(N1)C(=O)OCC(C)(C)C2 have?
97.5

What value of viability, T/C on 282377-053-R-J1-PDC complex spheroid viability does CC(=O)OC12COC1CC(O)C1(C)C(=O)C(O)C3=C(C)C(OC(=O)C(O)C(NC(=O)OC(C)(C)C)c4ccccc4)CC(O)(C(OC(=O)c4ccccc4)C21)C3(C)C (stereo not given) + CCn1c(-c2cccnc2C(C)OC)c2c3cc(ccc31)N1CCOC(CC(NC(=O)C(C(C)C)N(C)C(=O)C3(F)CCN(C(=O)C#CC(C)(C)N(C)C)CC3)C(=O)N3CCCC(N3)C(=O)OCC(C)(C)C2)C1 have?
54.5

What value of viability, T/C on 282377-053-R-J1-PDC complex spheroid viability does Cc1nc(N2CCC3(CC2)COC(C)C3N)c(CO)nc1Sc1ccnc(N)c1Cl (stereo not given) + CCn1c(-c2cc(N3CCN(C)CC3)cnc2C(C)OC)c2c3cc(ccc31)-c1csc(n1)CC(NC(=O)C1CC1C)C(=O)N1CCCC(N1)C(=O)OCC(C)(C)C2 have?
88.8

What value of viability, T/C on 282377-053-R-J1-PDC complex spheroid viability does C=CC(=O)Nc1cc(Nc2nccc(-c3cn(C)c4ccccc34)n2)c(OC)cc1N(C)CCN(C)C + CCn1c(-c2cccnc2C(C)OC)c2c3cc(ccc31)N1CCOC(CC(NC(=O)C(C(C)C)N(C)C(=O)C3(F)CCN(C(=O)C#CC(C)(C)N(C)C)CC3)C(=O)N3CCCC(N3)C(=O)OCC(C)(C)C2)C1 have?
102

What value of viability, T/C on 282377-053-R-J1-PDC complex spheroid viability does C[C@@H](NC(=O)c1ncnc(N)c1Cl)c1ncc(C(=O)Nc2cc(C(F)(F)F)c(Cl)cn2)s1 + CCn1c(-c2cccnc2C(C)OC)c2c3cc(ccc31)N1CCOC(CC(NC(=O)C(C(C)C)N(C)C(=O)C3(F)CCN(C(=O)C#CC(C)(C)N(C)C)CC3)C(=O)N3CCCC(N3)C(=O)OCC(C)(C)C2)C1 have?
99.1

What value of viability, T/C on 282377-053-R-J1-PDC complex spheroid viability does O=C(c1ccc(F)c(F)c1Nc1ccc(I)cc1F)N1CC(O)([C@@H]2CCCCN2)C1 + CCn1c(-c2cc(N3CCN(C)CC3)cnc2C(C)OC)c2c3cc(ccc31)-c1csc(n1)CC(NC(=O)C1CC1C)C(=O)N1CCCC(N1)C(=O)OCC(C)(C)C2 have?
21.5

What value of viability, T/C on 282377-053-R-J1-PDC complex spheroid viability does CC(Nc1ccc2c(c1)OCCn1cc(N3C(=O)OCC3C(F)F)nc1-2)C(N)=O (stereo not given) + CCn1c(-c2cccnc2C(C)OC)c2c3cc(ccc31)N1CCOC(CC(NC(=O)C(C(C)C)N(C)C(=O)C3(F)CCN(C(=O)C#CC(C)(C)N(C)C)CC3)C(=O)N3CCCC(N3)C(=O)OCC(C)(C)C2)C1 have?
85.5
